target: hnRNPA2 1-189 (tandem RRMs) (UniProt P22626-2 1-189); assay: ITC; 7000 uM protein, 800 uM RNA; N 0.798; ITC: 20 mM NaPi pH 6.75, 150 mM NaCl, 25 C (also 20 mM KPi pH 6.75; 20 mM MES pH 6.7, 150 mM NaCl, 10 mM CaCl2); protein in syringe, RNA in cell; settings: protein: recombinant; tags: His tag removed by TEV; single strand
Sequence (P22626 other isoform, or with tags, fused parts or gaps): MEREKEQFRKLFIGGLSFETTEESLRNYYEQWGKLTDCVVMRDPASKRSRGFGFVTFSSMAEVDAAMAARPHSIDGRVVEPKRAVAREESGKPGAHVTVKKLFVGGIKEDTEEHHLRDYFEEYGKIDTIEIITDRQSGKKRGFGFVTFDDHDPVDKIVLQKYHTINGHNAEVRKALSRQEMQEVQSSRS
readout_label: Kd (µM)
Just the number in µM, nothing appended.

## Input Report Kd for GCCAAGGAGCC (ssRNA) [rA2RE11] please.
## Output 143
